B1: PhoQ; a variant is named by its letters at X, in order, P23837 (parent)
chain: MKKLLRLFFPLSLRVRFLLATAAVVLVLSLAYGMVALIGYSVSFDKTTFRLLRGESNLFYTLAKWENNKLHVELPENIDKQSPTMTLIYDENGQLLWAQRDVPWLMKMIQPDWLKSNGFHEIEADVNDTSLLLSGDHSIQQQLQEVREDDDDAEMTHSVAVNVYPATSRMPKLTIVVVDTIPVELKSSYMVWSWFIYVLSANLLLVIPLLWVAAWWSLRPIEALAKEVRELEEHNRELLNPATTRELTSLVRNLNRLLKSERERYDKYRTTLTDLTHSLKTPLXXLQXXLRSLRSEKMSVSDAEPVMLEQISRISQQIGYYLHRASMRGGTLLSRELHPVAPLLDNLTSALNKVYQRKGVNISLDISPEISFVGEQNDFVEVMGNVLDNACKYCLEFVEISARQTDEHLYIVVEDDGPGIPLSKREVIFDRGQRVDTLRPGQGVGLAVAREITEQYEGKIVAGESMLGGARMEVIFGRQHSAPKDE

variants of: B1; test: enrichment ratio after two sorts for PhoP signalling (ratio (wild type AVST 3.29)); higher = more functional; conditions: with PhoP (E. coli)
In all, about 140,000 sequences were measured (“enrichment ratio after two sorts for PhoP signalling”: median about 0, highest 2% from about 11 on). For the sample, the highest values were picked, then their nearest neighbours and some sequences at random.
Measurement Kind: enrichment ratio

These recorded examples may help you get a feel for the data.
INSERT INTO assay_data (variant_identifier, measurement_kind, observed_result) VALUES
  ('TATM', 'enrichment ratio', 27),
  ('SIMG', 'enrichment ratio', 13.2),
  ('KAAM', 'enrichment ratio', '≤ 0.25'),
  ('TANE', 'enrichment ratio', 18.3);

Turning now to a further variant:
Query :: Please give the documented enrichment ratio of MEIC
Result :: 11
